Test system: Rattus norvegicus
Test: Distribution of radioactivity was determined in plasma at 24 hr after intravenous administration of [125I]-labeled 2-oleoglycerol 1,3-Bis-[omega-(3-amino-2,4,6-triiodophenyl)alkanoates] in rats
Assay type: ADME, organism-based
Design: unit not given here
Conditions: in vivo
Hi there, I'd appreciate the recorded Distribution of radioactivity for every entry that follows.
Give bare numbers.

Below, each entry is followed by its recorded Distribution of radioactivity result.
> print(dat)
                                   molecule             measured.parameter  reported
1  CCCCCCCC/C=C/CCCCCCCC(=O)OC(COC(=O)C(CC)Cc1c(I)cc(I)c(N)c1I)COC(=O)C(CC)Cc1c(I)cc(I)c(N)c1I (configuration not stated)  Distribution of radioactivity      0.01
2  CCCCCCCC/C=C/CCCCCCCC(=O)OC(COC(=O)CCCCc1c(I)cc(I)c(N)c1I)COC(=O)CCCCc1c(I)cc(I)c(N)c1I  Distribution of radioactivity      0.14
3  CCCCCCCC/C=C/CCCCCCCC(=O)OC(COC(=O)CCc1c(I)cc(I)c(N)c1I)COC(=O)CCc1c(I)cc(I)c(N)c1I  Distribution of radioactivity      0.05
4  CCCCCCCC/C=C/CCCCCCCC(=O)OC(COC(=O)CCCCCc1c(I)cc(I)c(N)c1I)COC(=O)CCCCCc1c(I)cc(I)c(N)c1I  Distribution of radioactivity      0.14
5  CCCCCCCC/C=C/CCCCCCCC(=O)OC(COC(=O)CCCc1c(I)cc(I)c(N)c1I)COC(=O)CCCc1c(I)cc(I)c(N)c1I  Distribution of radioactivity      0.24

Give measured Distribution of radioactivity for every item shown.
1. CCCCCCCC/C=C/CCCCCCCC(=O)OC(COC(=O)CCCCCCc1c(I)cc(I)c(N)c1I)COC(=O)CCCCCCc1c(I)cc(I)c(N)c1I
2. CCCCCCCC/C=C/CCCCCCCC(=O)OC(COC(=O)Cc1c(I)cc(I)c(N)c1I)COC(=O)Cc1c(I)cc(I)c(N)c1I

[A]
[0.21, 0.01]

---

Hi there, I'd appreciate the recorded Distribution of radioactivity for every entry that follows.
System: Rattus norvegicus
Assay: Distribution of radioactivity was determined in blood at 30 min after intravenous administration of [125I]-labeled 2-oleoglycerol 1,3-Bis-[omega-(3-amino-2,4,6-triiodophenyl)alkanoates] in rats
Format: ADME, organism-based
Details: in vivo, 0.5 h
# answer = value followed by unit

Below, each entry is followed by its recorded Distribution of radioactivity result.
> print(dat)
                                   compound       reported
1  CCCCCCCC/C=C/CCCCCCCC(=O)OC(COC(=O)Cc1c(I)cc(I)c(N)c1I)COC(=O)Cc1c(I)cc(I)c(N)c1I  0.69 % dose/g
2  CCCCCCCC/C=C/CCCCCCCC(=O)OC(COC(=O)CCCCCc1c(I)cc(I)c(N)c1I)COC(=O)CCCCCc1c(I)cc(I)c(N)c1I  0.38 % dose/g
3  CCCCCCCC/C=C/CCCCCCCC(=O)OC(COC(=O)C(CC)Cc1c(I)cc(I)c(N)c1I)COC(=O)C(CC)Cc1c(I)cc(I)c(N)c1I (stereo not given)  0.26 % dose/g
4  CCCCCCCC/C=C/CCCCCCCC(=O)OC(COC(=O)CCCCCCc1c(I)cc(I)c(N)c1I)COC(=O)CCCCCCc1c(I)cc(I)c(N)c1I  0.59 % dose/g

Now look at this one.
[Q] Would you kindly share the measured Distribution of radioactivity for `CCCCCCCC/C=C/CCCCCCCC(=O)OC(COC(=O)CCCCc1c(I)cc(I)c(N)c1I)COC(=O)CCCCc1c(I)cc(I)c(N)c1I` ?
[A] 0.08 % dose/g

---

Tested on: Rattus norvegicus
Test: Polyacrylamide Gel Electrophoresis (PAGE) to determined the concentration of albumin(ALB) in rats after iv administration of [125I]-labeled 2-Oleolyl 1,3-disubstituted triglycerols was reported
Type: ADME, organism-based
Conditions: in vivo
Hi there, I'd appreciate the recorded Radioactivity for every entry that follows.
One number for each entry, in %.

Below, each entry is followed by its recorded Radioactivity result.
> print(dat)
                                   molecule  reported
1  CCCCCCCC/C=C/CCCCCCCC(=O)OC(COC(=O)CCCCCCc1c(I)cc(I)c(N)c1I)COC(=O)CCCCCCc1c(I)cc(I)c(N)c1I      66.3
2  CCCCCCCC/C=C/CCCCCCCC(=O)OC(COC(=O)CCCCCc1c(I)cc(I)c(N)c1I)COC(=O)CCCCCc1c(I)cc(I)c(N)c1I        15
3  CCCCCCCC/C=C/CCCCCCCC(=O)OC(COC(=O)CCCCc1c(I)cc(I)c(N)c1I)COC(=O)CCCCc1c(I)cc(I)c(N)c1I      20.7
4  CCCCCCCC/C=C/CCCCCCCC(=O)OC(COC(=O)C(CC)Cc1c(I)cc(I)c(N)c1I)COC(=O)C(CC)Cc1c(I)cc(I)c(N)c1I (stereo not given)       4.9

Now look at this one.
[Q] Would you kindly share the measured Radioactivity for `CCCCCCCC/C=C/CCCCCCCC(=O)OC(COC(=O)Cc1c(I)cc(I)c(N)c1I)COC(=O)Cc1c(I)cc(I)c(N)c1I` ?
[A] 1.8

---

System: Rattus norvegicus
Experiment: Distribution of radioactivity was determined in liver at 30 min after intravenous administration of 1,3-Disubstituted Triacylglycerols in rats
Type: ADME, organism-based
Details: in vivo, 0.5 h
Measured parameter: Radioactivity per organ (% dose/organ)
Give bare numbers, in % dose/organ.

Below, each entry is followed by its recorded Radioactivity per organ result.
> print(dat)
                                   compound         units  reported
1  CCCCCCCC/C=C/CCCCCCCC(=O)OC(COC(=O)Cc1c(I)cc(I)c(N)c1I)COC(=O)Cc1c(I)cc(I)c(N)c1I  % dose/organ      69.8
2  CCCCCCCC/C=C/CCCCCCCC(=O)OC(COC(=O)CCCCc1c(I)cc(I)c(N)c1I)COC(=O)CCCCc1c(I)cc(I)c(N)c1I  % dose/organ      65.1
3  CCCCCCCC/C=C/CCCCCCCC(=O)OC(COC(=O)C(CC)Cc1c(I)cc(I)c(N)c1I)COC(=O)C(CC)Cc1c(I)cc(I)c(N)c1I (stereo not given)  % dose/organ        78

Give measured Radioactivity per organ for every item shown.
1. CCCCCCCC/C=C/CCCCCCCC(=O)OC(COC(=O)CCCCCc1c(I)cc(I)c(N)c1I)COC(=O)CCCCCc1c(I)cc(I)c(N)c1I
2. CCCCCCCC/C=C/CCCCCCCC(=O)OC(COC(=O)CCCCCCc1c(I)cc(I)c(N)c1I)COC(=O)CCCCCCc1c(I)cc(I)c(N)c1I

[A]
1: 66.8; 2: 67.7

---

Test system: Rattus norvegicus
Experiment: Analysis of lipid-soluble radioactivity in plasma 0.5 hour after iv administration of [125I]-labeled 2-Oleoyl 1,3-disubstituted Triacylglycerols expressed as %parent compound (by TLC with authentic [125I]-labeled standard) from rat
Assay type: ADME, organism-based
Conditions: in vivo
Please enter label 1 where Lipid-soluble radioactivity is greater than or equal to 40, and label 0 where it is lower.

Solved entries:
> print(dat)
                                   compound                tgt  assigned.label
1  CCCCCCCC/C=C/CCCCCCCC(=O)OC(COC(=O)CCCCCc1c(I)cc(I)c(N)c1I)COC(=O)CCCCCc1c(I)cc(I)c(N)c1I  Rattus norvegicus         label 1
2  CCCCCCCC/C=C/CCCCCCCC(=O)OC(COC(=O)C(CC)Cc1c(I)cc(I)c(N)c1I)COC(=O)C(CC)Cc1c(I)cc(I)c(N)c1I (stereo not given)  Rattus norvegicus         label 0
3  CCCCCCCC/C=C/CCCCCCCC(=O)OC(COC(=O)CCCCc1c(I)cc(I)c(N)c1I)COC(=O)CCCCc1c(I)cc(I)c(N)c1I  Rattus norvegicus         label 1
4  CCCCCCCC/C=C/CCCCCCCC(=O)OC(COC(=O)CCCc1c(I)cc(I)c(N)c1I)COC(=O)CCCc1c(I)cc(I)c(N)c1I  Rattus norvegicus         label 1

[Q] Given the entry `CCCCCCCC/C=C/CCCCCCCC(=O)OC(COC(=O)CCCCCCc1c(I)cc(I)c(N)c1I)COC(=O)CCCCCCc1c(I)cc(I)c(N)c1I` , answer whether its Lipid-soluble radioactivity meets or surpasses 40.
[A] label 0

---

Test system: Rattus norvegicus
Assay: Distribution of radioactivity was determined in thyroid at 24 hr after intravenous administration of [125I]-labeled 2-oleoglycerol 1,3-Bis-[omega-(3-amino-2,4,6-triiodophenyl)alkanoates] in rats
Assay type: ADME, organism-based, Thyroid gland
Settings: in vivo
Measured parameter: Distribution of radioactivity (% dose/g)
Answers are plain numbers, in % dose/g.

Give measured Distribution of radioactivity for every item shown.
1. CCCCCCCC/C=C/CCCCCCCC(=O)OC(COC(=O)CCCCCCc1c(I)cc(I)c(N)c1I)COC(=O)CCCCCCc1c(I)cc(I)c(N)c1I
2. CCCCCCCC/C=C/CCCCCCCC(=O)OC(COC(=O)Cc1c(I)cc(I)c(N)c1I)COC(=O)Cc1c(I)cc(I)c(N)c1I
3. CCCCCCCC/C=C/CCCCCCCC(=O)OC(COC(=O)CCCCCc1c(I)cc(I)c(N)c1I)COC(=O)CCCCCc1c(I)cc(I)c(N)c1I
4. CCCCCCCC/C=C/CCCCCCCC(=O)OC(COC(=O)C(CC)Cc1c(I)cc(I)c(N)c1I)COC(=O)C(CC)Cc1c(I)cc(I)c(N)c1I (stereo not given)
5. CCCCCCCC/C=C/CCCCCCCC(=O)OC(COC(=O)CCCCc1c(I)cc(I)c(N)c1I)COC(=O)CCCCc1c(I)cc(I)c(N)c1I

[A]
1: 6.53; 2: 2.58; 3: 5.13; 4: 17.3; 5: 6.74
